Tested on: Serra. marc ATCC 13880
PROTOCOL_SUMMARY: MIC in vitro
Type: cell-based, Serratia marcescens
STUDY_CONDITIONS: Serratia marcescens, ATCC13880, Table 1; Serra. marc ATCC 13880; read-out: MIC in vitro
READOUT_NAME: MIC (µg/mL)
Give bare numbers, in µg/mL.

O=C(CSC(F)(F)F)NC1C(=O)N2C(C(=O)O)=C(CSc3nnnn3CS(=O)(=O)O)CSC12 (stereo not shown)    200
N#CCC(=O)NC1C(=O)N2C(C(=O)O)=C(CSc3nnnn3CS(=O)(=O)O)CS[C@H]12 (stereo partly shown)    50
O=C(Cc1cccs1)NC1C(=O)N2C(C(=O)O)=C(CSc3nnnn3CS(=O)(=O)O)CS[C@H]12 (stereo partly shown)    100
O=C(O)C1=C(CSc2nnnn2CS(=O)(=O)O)CS[C@@H]2C(NC(=O)[C@H](O)c3ccccc3)C(=O)N12 (stereo partly shown)    12.5
Cc1nnc(SCC2=C(C(=O)O)N3C(=O)[C@@H](NC(=O)Cn4cnnn4)[C@H]3SC2)s1 [XIII, Cefazolin, reference compound]    200

Query block: Find the measured MIC of NS(=O)(=O)CCn1nnnc1SCC1=C(C(=O)O)N2C(=O)C(NC(=O)Cc3cccs3)[C@H]2SC1 (stereo partly shown) and report it.
Result block: 200

---

System: E. coli 12140
PROTOCOL_SUMMARY: In vivo mouse protection, E. coli 12140
STUDY_CONDITIONS: Escherichia coli, 12140, po, Table 2; E. coli 12140; p.o.; read-out: ED50 in vivo
READOUT_NAME: ED50 (mg/kg)
Give bare numbers, in mg/kg.

Recorded ED50, per entry:
NS(=O)(=O)CCn1nnnc1SCC1=C(C(=O)O)N2C(=O)C(NC(=O)CSC(F)(F)F)C2SC1 (stereo not shown)    44
O=C(Cn1cnnn1)NC1C(=O)N2C(C(=O)O)=C(CSc3nnnn3CS(=O)(=O)O)CSC12 (stereo not shown)    50
O=C(O)C1=C(CSc2nnnn2CCS(=O)(=O)O)CS[C@@H]2C(NC(=O)[C@H](O)c3ccccc3)C(=O)N12 (stereo partly shown)    35

Here is another compound to look at.
Query block: Find the measured ED50 of NS(=O)(=O)CCn1nnnc1SCC1=C(C(=O)O)N2C(=O)C(NC(=O)[C@H](O)c3ccccc3)[C@H]2SC1 (stereo partly shown) and report it.
Result block: 25

---

Please go through the items and note down their MIC.
Tested on: Proteus morgani 179
PROTOCOL_SUMMARY: MIC in vitro
Type: cell-based
STUDY_CONDITIONS: Table 1, read-out: MIC in vitro

Recorded MIC, per entry:
NS(=O)(=O)CCn1nnnc1SCC1=C(C(=O)O)N2C(=O)C(NC(=O)CSC(F)(F)F)C2SC1 (stereo not drawn) [IX]    200 mg/L
NCc1ccccc1CC(=O)NC1C(=O)N2C(C(=O)O)=C(CSc3nnnn3CS(=O)(=O)O)CS[C@H]12 (stereo partly drawn) [XI]    50 mg/L
O=C(Cn1cnnn1)NC1C(=O)N2C(C(=O)O)=C(CSc3nnnn3CS(=O)(=O)O)CSC12 (stereo not drawn) [X]    200 mg/L

Please state, for each entry, its recorded MIC.
1. O=C(Cc1cccs1)NC1C(=O)N2C(C(=O)O)=C(CSc3nnnn3CS(=O)(=O)O)CS[C@H]12 (stereo partly drawn) [V]
2. NS(=O)(=O)CCn1nnnc1SCC1=C(C(=O)O)N2C(=O)C(NC(=O)[C@H](O)c3ccccc3)[C@H]2SC1 (stereo partly drawn) [III]
3. O=C(Cc1cccs1)NC1C(=O)N2C(C(=O)O)=C(CSc3nnnn3CCS(=O)(=O)O)CS[C@H]12 (stereo partly drawn) [VI]

Result block:
1. > 200 mg/L
2. 3.1 mg/L
3. > 200 mg/L
